Data provenance: patent US20230183352A1

biological target: Claudin 18.2 (CLDN18.2), expressed on CHOS-CLDN 18.2 / HEK293-CLDN 18.2 / HCC827-CLDN 18.2 cells (human, UniProt P56856 1-261); assay: cell ELISA
Decide using EC50 alone. Strictly below 0.1 µg/mL: rule met. Equal to or above 0.1 µg/mL: rule not met.

Reference set, count: 4
# binder, label_class
records = [
    ("QP14491448 (antibody, V domains shown) VH: EVQLVESGGGLVQPGGSLRLSCAASGFTFSSFGMHWVRQAPGKGLEWVSYISSGSNSIYYVDTVKGRFTISRDNAKNSLYLQMNSLRDEDTAVYYCARNAYYGNSFDYWGQGTLVTVSS VL: DIVMTQSPDSLAVSLGERATISCKSSQSLLNSGNQKNYLTWYQQKPGQPPKLLIYWASTRESGVPDRFTGSGSGTVFTLTISSLQAEDVAVYFCQNNYYYPLTFGGGTKVEIKR", "rule not met"),
    ("QP199200 (antibody, V domains shown) VH: DVQLVESGGGLVQPGGSRKLSCAASGFTFSSFGMHWVRQAPEKGLEWVAYISSGSNSIYYVDTVKGRFTISRDNPKNTLFLQMTSLKSEDTAMYYCARNAYYGNSFDYWGQGTTLTVSS VL: DIVMTQSPSSLTVTAGEKVTMSCKSSQSLLNSGNQKNYLTWYQQKPGQPPKLLIYWASTRESGVPDRFTGSGSGTVFTLTISSVQAEDLAVYFCQNNYYYPLTFGAGTKLELK", "rule not met"),
    ("QP14501447 (antibody, V domains shown) VH: EVQLVESGGGLVQPGGSLRLSCAASGFTFSSFGMHWVRQAPGKGLEWVAYISSGSNSIYYVDTVKGRFTISRDNAKNSLYLQMNSLRDEDTAVYYCARNAYYGNSFDYWGQGTLVTVSS VL: DIVMTQSPDSLAVSLGERATISCKSSQSLLNSGNQKNYLTWYQQKPGQPPKLLIYWASTRESGVPDRFSGSGSGTDFTLTISSLQAEDVAVYFCQNNYYYPLTFGGGTKVEIK", "rule met"),
    ("QP14661462 (antibody, V domains shown) VH: EVQLVQSGAEVKKPGASVKVSCKASGYTFTSYIMHWVKQAPGQGLEWIGYINPYNDGTKYNEKFKGKATLTSDKSTSTVYMELSSLRSEDTAVYCCARLGFTTRNAMDYWGQGTLVTVSS VL: DIVMTQSPDSLAVSLGERATINCKSSQSLLNSGNQKNYLAWYQQKPGQPPKLLIYGASTRESGVPDRFTGSGSGTDFTLTISSVQAEDVAVYYCQNDHSYPFTFGQGTKLEIK", "rule not met"),
]

From here, focus on the item given below.
Request: Criterion: EC50 strictly below 0.1 µg/mL. Is it met by QP14501448 (antibody, V domains shown) VH: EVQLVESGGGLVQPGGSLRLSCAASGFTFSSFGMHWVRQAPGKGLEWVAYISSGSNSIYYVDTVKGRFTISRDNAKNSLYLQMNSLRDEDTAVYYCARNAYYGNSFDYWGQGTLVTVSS VL: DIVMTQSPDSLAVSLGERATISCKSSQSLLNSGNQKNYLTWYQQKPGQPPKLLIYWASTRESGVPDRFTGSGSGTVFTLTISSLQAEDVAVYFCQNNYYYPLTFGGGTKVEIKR ?
Response: rule not met
